# subject.of.test: JAK2 (Homo sapiens, UniProt O60674)
# Construct: purchased Carna Biosciences
# Sequence (O60674 whole entry): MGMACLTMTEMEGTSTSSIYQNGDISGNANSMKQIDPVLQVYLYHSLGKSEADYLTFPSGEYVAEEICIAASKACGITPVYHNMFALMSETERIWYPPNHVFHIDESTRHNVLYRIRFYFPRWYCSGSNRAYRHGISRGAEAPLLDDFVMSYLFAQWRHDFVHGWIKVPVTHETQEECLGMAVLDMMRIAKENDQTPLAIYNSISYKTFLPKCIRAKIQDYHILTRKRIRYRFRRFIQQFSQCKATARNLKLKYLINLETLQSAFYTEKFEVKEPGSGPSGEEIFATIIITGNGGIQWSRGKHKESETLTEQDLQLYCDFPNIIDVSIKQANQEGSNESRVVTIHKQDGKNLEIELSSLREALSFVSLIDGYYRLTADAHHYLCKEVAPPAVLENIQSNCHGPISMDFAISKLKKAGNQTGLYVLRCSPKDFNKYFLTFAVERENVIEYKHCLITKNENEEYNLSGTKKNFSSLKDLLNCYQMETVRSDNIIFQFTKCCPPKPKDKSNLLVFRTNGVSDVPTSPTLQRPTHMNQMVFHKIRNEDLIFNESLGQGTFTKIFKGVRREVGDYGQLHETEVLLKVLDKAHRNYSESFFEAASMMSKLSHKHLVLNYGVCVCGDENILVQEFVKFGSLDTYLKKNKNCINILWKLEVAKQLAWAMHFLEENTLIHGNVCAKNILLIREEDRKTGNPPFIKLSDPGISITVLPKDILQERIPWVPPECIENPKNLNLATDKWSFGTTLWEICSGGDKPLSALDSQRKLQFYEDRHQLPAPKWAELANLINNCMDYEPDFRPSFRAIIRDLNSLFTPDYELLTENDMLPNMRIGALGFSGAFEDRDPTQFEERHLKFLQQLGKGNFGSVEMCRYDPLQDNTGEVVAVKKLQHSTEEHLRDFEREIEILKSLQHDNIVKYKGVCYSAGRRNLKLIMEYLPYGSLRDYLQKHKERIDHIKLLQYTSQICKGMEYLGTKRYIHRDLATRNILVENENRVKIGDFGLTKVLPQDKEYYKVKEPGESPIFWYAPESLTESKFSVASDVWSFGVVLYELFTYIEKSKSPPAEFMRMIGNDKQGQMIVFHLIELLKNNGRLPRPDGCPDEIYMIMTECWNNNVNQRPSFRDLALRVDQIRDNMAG
# assay.procedure: JAK2 microfluidic kinase assay (Caliper EZ Reader II, FAM labeled peptide substrate)
# Assay type: biochemical
# condition.description: IC50 JAK2 ([…]) (1 mM ATP), 1 mM ATP
quantity: IC50

Below are worked cases with known answers.
# molecule, result
rows = [
    ("CNC(=O)c1ccc(-c2nc(Nc3cnn(C)c3)ncc2C)cc1 [Example 10]", "> 5000 nM"),
    ("Cc1cnc(Nc2cnn(C3CCN(C(=O)C4(C)CC4)CC3)c2)nc1-c1ccc(C(=O)NCC#N)cc1 [Example 38]", "< 0.25 nM"),
    ("Cc1cnc(Nc2cnn(C3CCC(O)CC3)c2)nc1-c1ccc(C(=O)N[C@@H](C)C#N)cc1 (stereo partly shown) [Example 209]", "< 0.25 nM"),
]

# input for lookup
For this molecule ( C[C@@H](C#N)NC(=O)c1ccc(-c2nc(Nc3cnn(C4CCN(C(=O)CO)CC4)c3)ncc2Cl)cc1 [Example 214] ), measured IC50 is < 0.25 nM
